Target: T1, hK1 (human tissue kallikrein 1), recombinant (human, UniProt P06870 25-262)
T1 construct: Expressed in P. pastoris from KLK1 cDNA and purified; enzymatically active; also called KLK1; Recombinant (Pichia) Kallikrein
Assay: SPR
OBSERVABLE: koff (s⁻¹)
Supply the numeric figure in s⁻¹, leaving out any unit text.

Examples with answers:
M0092-G06 (Fab, V domains shown) VH: EVQLLESGGGLVQPGGSLRLSCAASGFTFSHYGMNWVRQAPGKGLEWVSSIWSSGGYTTYADSVKGRFTISRDNSKNTLYLQMNSLRAEDTAVYYCARVGIWYSMDVWGQGTTVTVSS VL: AQSELTQPRSVSGSPGQSVTISCTGTSGEVANYNYVSWYHQDPGLVPKLKIYDVSRRPSGVPDRFSGAKSGDTASLTISGLQAEDEGDYYCASYVGNDKLVFGGGTKLTVLG | 0.00663
M0102-G12 (Fab, V domains shown) VH: EVQLLESGGGLVQPGGSLRLSCAASGFTFSKYKMVWVRQAPGKGLEWVSSIYPSGGITAYADSVKGRFTISRDNSKNTLYLQMNSLRAEDTAMYYCAKDITPGGGSGFRLPKNYYYYGMDVWGQGTTVTVSS VL: AQSELTQPPSASGTPGQRVTISCSGTLSNIGTNIVSWFQQLPGTAPKLLIYNDHRRPSGVPDRFSGSKSATSASLAISGLQSEDEADYYCAAWDDSLNGVVFGGGTKLTVLS | 0.000442

# binder M0135-B05 (Fab, V domains shown) VH: EVQLLESGGGLVQPGGSLRLSCAASGFTFSHYLMDWVRQAPGKGLEWVSVIYPSGGHTNYADSVKGRFTISRDNSKNTLYLQMNSLRAEDTAVYYCARVGVWYGMDVWGQGTTVTVSS VL: DIQMTQSPSSLSASVGDRVTITCRASQSISTYLNWYQQKPGKAPNLLIYAASSLQSGVPSRFSGSGSGTDFTLTVSSLQPEDFGTYYCQQYNSFPFSFGQGTRLEINR ; its koff = 0.000655

Hello, the source for this data is patent US7329737, in case you need it.
